Provenance of the data: patent US10888544B2

- run description: Single oral dose pharmacokinetic study of eliglustat tartrate in mild or moderate hepatic impairment and matched healthy subjects (Example 1)
- Format: in vivo, human
- applied conditions: human, plasma, oral, 100 mg, CYP2D6 IM, moderate HI, N=1; single 100 mg eliglustat tartrate oral; plasma; read-out: tmax
- Protocol: A multi-center, open-label, single oral dose study of eliglustat tartrate administered to mild or moderate HI and normal hepatic function (healthy) matched (by body weight and cytochrome P450 [CYP] 2D6 phenotype) subjects was carried out to study the effect of mild and moderate hepatic impairment (HI) on the pharmacokinetics (PK) of eliglustat. […]

[
  {
    "compound": "CCCCCCCC(=O)N[C@H](CN1CCCC1)[C@H](O)c1ccc2c(c1)OCCO2 [eliglustat]",
    "unit text": "h",
    "Tmax": 1.52
  }
]

* * *

- run description: Single oral dose pharmacokinetic study of eliglustat tartrate in mild or moderate hepatic impairment and matched healthy subjects (Example 1)
- Type: in vivo, human
- applied conditions: both sexes, human, plasma, po, 100 mg, CYP2D6 EM, healthy, N=7; single 100 mg eliglustat tartrate oral; plasma; read-out: AUC (extrapolated to infinity), geometric mean
experimental endpoint: AUC(0-inf) (ng·h/mL)

[
  {
    "compound": "CCCCCCCC(=O)N[C@H](CN1CCCC1)[C@H](O)c1ccc2c(c1)OCCO2 [eliglustat]",
    "val": 59.5
  }
]

* * *

- run description: Single oral dose pharmacokinetic study of eliglustat tartrate in mild or moderate hepatic impairment and matched healthy subjects (Example 1)
- Type: in vivo, human
- applied conditions: both sexes, human, plasma, po, 100 mg, CYP2D6 EM, healthy, N=7; single 100 mg eliglustat tartrate oral; plasma; read-out: tmax, median

[
  {
    "structure smiles string": "CCCCCCCC(=O)N[C@H](CN1CCCC1)[C@H](O)c1ccc2c(c1)OCCO2",
    "Tmax": "2.5 h"
  }
]

* * *

- run description: Single oral dose pharmacokinetic study of eliglustat tartrate in mild or moderate hepatic impairment and matched healthy subjects (Example 1)
- Assay type: in vivo, human
- applied conditions: both sexes, human, plasma, oral, 100 mg, CYP2D6 IM, mild HI, N=2; single 100 mg eliglustat tartrate oral; plasma; read-out: AUC (extrapolated to infinity), mean

[
  {
    "structure smiles string": "CCCCCCCC(=O)N[C@H](CN1CCCC1)[C@H](O)c1ccc2c(c1)OCCO2",
    "unit text": "ng·h/mL",
    "AUC(0-inf)": 346
  }
]

* * *

- run description: Phase 1 single dose pharmacokinetic study of eliglustat tartrate in severe renal impairment and matched normal renal function subjects (Example 3)
- Format: in vivo, human
- applied conditions: both sexes, human, plasma, po, 100 mg, CYP2D6 EM, severe RI, N=7; single oral 100 mg eliglustat tartrate; plasma; read-out: AUClast, mean ± SD

[
  {
    "molecule": "CCCCCCCC(=O)N[C@H](CN1CCCC1)[C@H](O)c1ccc2c(c1)OCCO2 [eliglustat]",
    "AUC(0-t) / ng·h/mL": 102
  }
]

* * *

- run description: Phase 1 single dose pharmacokinetic study of eliglustat tartrate in severe renal impairment and matched normal renal function subjects (Example 3)
- Assay type: in vivo, human
- applied conditions: both sexes, human, plasma, po, 100 mg, CYP2D6 EM, healthy, N=7; single oral 100 mg eliglustat tartrate; plasma; read-out: Vz/F, geometric mean
experimental endpoint: Vd/F (L)

[
  {
    "structure smiles string": "CCCCCCCC(=O)N[C@H](CN1CCCC1)[C@H](O)c1ccc2c(c1)OCCO2",
    "unit text": "L",
    "val": 10100
  }
]

* * *

- run description: Phase 1 single dose pharmacokinetic study of eliglustat tartrate in severe renal impairment and matched normal renal function subjects (Example 3)
- Format: in vivo, human
- applied conditions: both sexes, human, plasma, oral, 100 mg, CYP2D6 EM, severe RI, eliglustat tartrate alone, N=2; read-out: Cmax, geometric mean
experimental endpoint: Cmax

[
  {
    "molecule": "CCCCCCCC(=O)N[C@H](CN1CCCC1)[C@H](O)c1ccc2c(c1)OCCO2 [eliglustat]",
    "val": "15.2 ng/mL"
  }
]

* * *

- run description: Phase 1 single dose pharmacokinetic study of eliglustat tartrate in severe renal impairment and matched normal renal function subjects (Example 3)
- Assay type: in vivo, human
- applied conditions: both sexes, human, plasma, oral, 100 mg, CYP2D6 EM, severe RI, eliglustat tartrate alone, N=2; read-out: AUC, geometric mean

[
  {
    "structure smiles string": "CCCCCCCC(=O)N[C@H](CN1CCCC1)[C@H](O)c1ccc2c(c1)OCCO2",
    "AUC (ng·h/mL)": 104
  }
]

* * *

- run description: Single oral dose pharmacokinetic study of eliglustat tartrate in mild or moderate hepatic impairment and matched healthy subjects (Example 1)
- Assay type: in vivo, human
- applied conditions: both sexes, human, plasma, oral, 100 mg, CYP2D6 IM, mild HI, N=2; single 100 mg eliglustat tartrate oral; plasma; read-out: AUClast, mean
experimental endpoint: AUC(0-t) (ng·h/mL)

[
  {
    "structure smiles string": "CCCCCCCC(=O)N[C@H](CN1CCCC1)[C@H](O)c1ccc2c(c1)OCCO2",
    "experimental endpoint": "AUC(0-t)",
    "val": 334
  }
]

* * *

- run description: Phase 1 single dose pharmacokinetic study of eliglustat tartrate in severe renal impairment and matched normal renal function subjects (Example 3)
- Format: in vivo, human
- applied conditions: both sexes, human, plasma, po, 100 mg, CYP2D6 EM, healthy, N=7; single oral 100 mg eliglustat tartrate; plasma; read-out: AUC (extrapolated to infinity), mean ± SD

[
  {
    "structure smiles string": "CCCCCCCC(=O)N[C@H](CN1CCCC1)[C@H](O)c1ccc2c(c1)OCCO2",
    "AUC(0-inf)": "118 ng·h/mL"
  }
]

* * *

- run description: Single oral dose pharmacokinetic study of eliglustat tartrate in mild or moderate hepatic impairment and matched healthy subjects (Example 1)
- Assay type: in vivo, human
- applied conditions: both sexes, human, plasma, po, 100 mg, CYP2D6 EM, moderate HI, N=7; single 100 mg eliglustat tartrate oral; plasma; read-out: tmax, median

[
  {
    "structure smiles string": "CCCCCCCC(=O)N[C@H](CN1CCCC1)[C@H](O)c1ccc2c(c1)OCCO2",
    "Tmax (h)": 4
  }
]

* * *

- run description: Single oral dose pharmacokinetic study of eliglustat tartrate in mild or moderate hepatic impairment and matched healthy subjects (Example 1)
- Type: in vivo, human
- applied conditions: both sexes, human, plasma, po, 100 mg, CYP2D6 EM, mild HI, N=6; single 100 mg eliglustat tartrate oral; plasma; read-out: Cmax, geometric mean

[
  {
    "structure smiles string": "CCCCCCCC(=O)N[C@H](CN1CCCC1)[C@H](O)c1ccc2c(c1)OCCO2",
    "unit text": "ng/mL",
    "Cmax": 10.7
  }
]

* * *

- run description: Single oral dose pharmacokinetic study of eliglustat tartrate in mild or moderate hepatic impairment and matched healthy subjects (Example 1)
- Type: in vivo, human
- applied conditions: both sexes, human, plasma, po, 100 mg, CYP2D6 EM, healthy, N=7; single 100 mg eliglustat tartrate oral; plasma; read-out: AUC (extrapolated to infinity), mean ± SD
experimental endpoint: AUC(0-inf) (ng·h/mL)

[
  {
    "compound": "CCCCCCCC(=O)N[C@H](CN1CCCC1)[C@H](O)c1ccc2c(c1)OCCO2 [eliglustat]",
    "val": 69
  }
]

* * *

- run description: Single oral dose pharmacokinetic study of eliglustat tartrate in mild or moderate hepatic impairment and matched healthy subjects (Example 1)
- Format: in vivo, human
- applied conditions: both sexes, human, plasma, po, 100 mg, CYP2D6 EM, moderate HI, N=7; single 100 mg eliglustat tartrate oral; plasma; read-out: Cmax, geometric mean
- Method: A multi-center, open-label, single oral dose study of eliglustat tartrate administered to mild or moderate HI and normal hepatic function (healthy) matched (by body weight and cytochrome P450 [CYP] 2D6 phenotype) subjects was carried out to study the effect of mild and moderate hepatic impairment (HI) on the pharmacokinetics (PK) of eliglustat. […]
experimental endpoint: Cmax

[
  {
    "structure smiles string": "CCCCCCCC(=O)N[C@H](CN1CCCC1)[C@H](O)c1ccc2c(c1)OCCO2",
    "experimental endpoint": "Cmax",
    "val": "24.8 ng/mL"
  }
]

* * *

- run description: Single oral dose pharmacokinetic study of eliglustat tartrate in mild or moderate hepatic impairment and matched healthy subjects (Example 1)
- Type: in vivo, human
- applied conditions: both sexes, human, plasma, po, 100 mg, CYP2D6 EM, healthy, N=7; single 100 mg eliglustat tartrate oral; plasma; read-out: Cmax, geometric mean
- Procedure: A multi-center, open-label, single oral dose study of eliglustat tartrate administered to mild or moderate HI and normal hepatic function (healthy) matched (by body weight and cytochrome P450 [CYP] 2D6 phenotype) subjects was carried out to study the effect of mild and moderate hepatic impairment (HI) on the pharmacokinetics (PK) of eliglustat. […]
experimental endpoint: Cmax (ng/mL)

[
  {
    "compound": "CCCCCCCC(=O)N[C@H](CN1CCCC1)[C@H](O)c1ccc2c(c1)OCCO2 [eliglustat]",
    "val": 8.81
  }
]
